Molecular target: Nuclear receptor ROR-gamma (Homo sapiens, UniProt P51449)
Sequence (P51449 whole entry): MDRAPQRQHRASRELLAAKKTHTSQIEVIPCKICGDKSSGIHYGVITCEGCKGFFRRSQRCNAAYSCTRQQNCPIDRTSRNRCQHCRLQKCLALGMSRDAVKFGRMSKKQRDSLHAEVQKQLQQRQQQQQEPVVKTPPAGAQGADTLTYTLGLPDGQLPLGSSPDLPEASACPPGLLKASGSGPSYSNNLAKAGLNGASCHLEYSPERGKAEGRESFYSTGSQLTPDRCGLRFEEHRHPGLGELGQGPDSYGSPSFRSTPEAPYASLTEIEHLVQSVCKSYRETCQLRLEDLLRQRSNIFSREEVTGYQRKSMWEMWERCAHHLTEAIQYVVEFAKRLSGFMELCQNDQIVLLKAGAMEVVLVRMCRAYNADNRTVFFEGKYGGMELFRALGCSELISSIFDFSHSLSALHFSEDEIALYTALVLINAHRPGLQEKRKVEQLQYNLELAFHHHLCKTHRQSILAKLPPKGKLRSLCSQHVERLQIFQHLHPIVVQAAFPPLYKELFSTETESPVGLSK
recorded_endpoint: pEC50
Expect pEC50 as a plain number equal to -log10 of the molar concentration.

stdin: Param readout = pEC50; param system = Nuclear receptor ROR-gamma (Homo sapiens, UniProt P51449); param query = "O=C(O)CC[C@H]1CN(S(=O)(=O)c2cccc(C(F)(F)F)c2)c2cc(-c3cc(F)ccc3F)ccc2O1" ; response: value
stdout: 8.10

stdin: Param readout = pEC50; param system = Nuclear receptor ROR-gamma (Homo sapiens, UniProt P51449); param query = "O=C(O)CC[C@H]1CN(S(=O)(=O)c2cccc(C(F)(F)F)c2)c2cc(-c3cc(F)ccc3Cl)ccc2O1" ; response: value
stdout: 6.84

stdin: Param readout = pEC50; param system = Nuclear receptor ROR-gamma (Homo sapiens, UniProt P51449); param query = "O=C(O)C1(C[C@H]2CN(S(=O)(=O)c3cccc(C(F)(F)F)c3)c3cc(-c4cccc(Cl)c4F)ccc3O2)CCOCC1" ; response: value
stdout: 7.62

stdin: Param readout = pEC50; param system = Nuclear receptor ROR-gamma (Homo sapiens, UniProt P51449); param query = "O=C(O)C1(C[C@H]2CN(S(=O)(=O)c3cccc(C(F)(F)F)c3)c3cc(-c4cc(F)cc(OC(F)F)c4)ccc3O2)CCOCC1" ; response: value
stdout: 8.10

stdin: Param readout = pEC50; param system = Nuclear receptor ROR-gamma (Homo sapiens, UniProt P51449); param query = "O=C(O)C1(C[C@H]2CN(S(=O)(=O)c3cccc(C(F)(F)F)c3)c3cc(-c4cc(F)ccc4F)ccc3O2)CCOCC1" ; response: value
stdout: 8.30

stdin: Param readout = pEC50; param system = Nuclear receptor ROR-gamma (Homo sapiens, UniProt P51449); param query = "O=C(O)CC[C@H]1CN(S(=O)(=O)c2cccc(C(F)(F)F)c2)c2cc(-c3cccc(OC(F)F)c3)ccc2O1" ; response: value
stdout: 8.00

stdin: Param readout = pEC50; param system = Nuclear receptor ROR-gamma (Homo sapiens, UniProt P51449); param query = "O=C(O)[C@@H](O)CC[C@H]1CN(S(=O)(=O)c2cccc(C(F)(F)F)c2)c2cc(-c3cc(F)ccc3F)ccc2O1" ; response: value
stdout: 7.89

stdin: Param readout = pEC50; param system = Nuclear receptor ROR-gamma (Homo sapiens, UniProt P51449); param query = "O=C(O)CC[C@H]1CN(S(=O)(=O)c2cccc(C(F)(F)F)c2)c2cc(-c3ccccc3Cl)ccc2O1" ; response: value
stdout: 8.05
